- SYSTEM: human TAS2R4 (Homo sapiens, UniProt Q9NYW5)
- Construct: expressed in transfected cells; host or cells: HEK293T-Gα16gust44
- Sequence (Q9NYW5 1-299): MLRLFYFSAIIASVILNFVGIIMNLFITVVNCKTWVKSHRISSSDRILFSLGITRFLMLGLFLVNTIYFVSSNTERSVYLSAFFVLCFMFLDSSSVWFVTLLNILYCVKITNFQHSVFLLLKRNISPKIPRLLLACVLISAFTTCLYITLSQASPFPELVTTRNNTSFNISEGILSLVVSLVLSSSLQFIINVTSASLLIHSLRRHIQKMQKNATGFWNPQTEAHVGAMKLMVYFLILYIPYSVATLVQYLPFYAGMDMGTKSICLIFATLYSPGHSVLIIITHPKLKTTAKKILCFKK
- ASSAY NAME: Calcium imaging assay (FLIPR), HEK293T-Gα16gust44 cells transfected with human TAS2R4; also: test concentration or dose not given here
- Assay type: cell-based
- STATED CONDITIONS: Time (s) 16
OBSERVED PROPERTY: RLU, fluorescence trace (RLU)

[[record]]
molecule = "C[C@H](CCC(=O)NCCS(=O)(=O)O)[C@H]1CC[C@H]2[C@@H]3[C@H](O)C[C@@H]4C[C@H](O)CC[C@]4(C)[C@H]3C[C@H](O)[C@]12C [Taurocholic Acid, taurocholic acid]"
observed_property = "RLU, fluorescence trace"
observed_measurement = -37.677

[[record]]
molecule = "C[C@H](CCC(=O)O)[C@H]1CC[C@H]2[C@@H]3[C@@H](O)C[C@@H]4C[C@H](O)CC[C@]4(C)[C@H]3CC[C@]12C [Ursodeoxycholic Acid, ursodeoxycholic acid]"
observed_property = "RLU, fluorescence trace"
observed_measurement = -22.0279

[[record]]
molecule = "C[C@H](CCC(=O)NCC(=O)O)[C@H]1CC[C@H]2[C@@H]3[C@H](O)C[C@@H]4C[C@H](O)CC[C@]4(C)[C@H]3C[C@H](O)[C@]12C [Glycocholic Acid, glycocholic acid]"
observed_property = "RLU, fluorescence trace"
observed_measurement = -18.2287

[[record]]
molecule = "C[C@H](CCC(=O)NCCS(=O)(=O)O)[C@H]1CC[C@H]2[C@@H]3CC[C@@H]4C[C@H](O)CC[C@]4(C)[C@H]3CC[C@]12C [Taurolithocholic Acid, taurolithocholic acid]"
observed_property = "RLU, fluorescence trace"
observed_measurement = 3.969

[[record]]
molecule = "C[C@H](CCC(=O)O)[C@H]1CC[C@H]2[C@@H]3[C@H](O)C[C@@H]4C[C@H](O)CC[C@]4(C)[C@H]3C[C@H](O)[C@]12C [Cholic Acid, cholic acid]"
observed_property = "RLU, fluorescence trace"
observed_measurement = 19.6047

[[record]]
molecule = "C[C@H](CCC(=O)O)[C@H]1CC[C@H]2[C@@H]3CC[C@@H]4C[C@H](O)CC[C@]4(C)[C@H]3C[C@H](O)[C@]12C [Deoxycholic Acid, deoxycholic acid]"
observed_property = "RLU, fluorescence trace"
observed_measurement = -52.8215


The reported measurements were obtained from paper PMC10247784.
